B1: GA-binding protein alpha chain, residues 172 to 250; numbered along this chain, Q06546 (parent)
chain: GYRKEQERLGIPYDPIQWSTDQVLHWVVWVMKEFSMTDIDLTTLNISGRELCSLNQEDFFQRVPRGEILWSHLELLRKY

Variants of: B1
Test: abundance fitness (aPCA) (normalised: wild type 0, dead -1); higher = more abundant; growth selection in yeast, the domain comes from the species named
Conditions: Homo sapiens
# abundance fitness binned as LOW = under -0.3, MID = from -0.3 up to -0.09, HIGH = -0.09 and over

Which class is correct for the following variant? GYRKEQERLGIPYDPIQWSTDQVLHWVVWVMKPFSMTDIDLTTLNISGRELCSLNQEDFFQRVPRGEILWSHLELLRKY [E33P]
MID

Which class is correct for the following variant? GYRKEQERRGIPYDPIQWSTDQVLHWVVWVMKEFSMTDIDLTTLNISGRELCSLNQEDFFQRVPRGEILWSHLELLRKY [L9R]
HIGH

Which class is correct for the following variant? GYRKEQERLGMPYDPIQWSTDQVLHWVVWVMKEFSMTDIDLTTLNISGRELCSLNQEDFFQRVPRGEILWSHLELLRKY [I11M]
LOW

Which class is correct for the following variant? GYRKEQERLGIPYDPIQWSTDQVLHWVVWVMKEFSMTDIDLTTLNISGRELCSLNQEDFFQRVPVGEILWSHLELLRKY [R65V]
MID

Which class is correct for the following variant? GYRKEQERLGIPYDPIQWSTDQVLHWVVWVMKEFSMTDIDLTTLNISGRALCSLNQEDFFQRVPRGEILWSHLELLRKY [E50A]
HIGH

Which class is correct for the following variant? GYRKEQERLGIPYDPIQWSTDQVLHWVVWVMKEFSMTDIDLLTLNISGRELCSLNQEDFFQRVPRGEILWSHLELLRKY [T42L]
MID

Which class is correct for the following variant? GYRKEQERLGIPYDPIQWSTDQVLHWVVWVMKEFSMTDIDLTTLNISGRELCSLNKEDFFQRVPRGEILWSHLELLRKY [Q56K]
HIGH

Which class is correct for the following variant? GYRKEVERLGIPYDPIQWSTDQVLHWVVWVMKEFSMTDIDLTTLNISGRELCSLNQEDFFQRVPRGEILWSHLELLRKY [Q6V]
HIGH

Which class is correct for the following variant? GYRKEQERLGIPYDPIQWSTDQVLHWVVWVMCEFSMTDIDLTTLNISGRELCSLNQEDFFQRVPRGEILWSHLELLRKY [K32C]
MID

Which class is correct for the following variant? GYRKEQERLGIPYDPIQWSTDQVLHWVVWVMKEFSMTDIDLTTLNISARELCSLNQEDFFQRVPRGEILWSHLELLRKY [G48A]
LOW

Which class is correct for the following variant? GYRKEQERLGIPYDPIQWSTDQVLHWVVWVMKEFSMTDIDLTTLNISGRELCSLNQEDFFQRVPRPEILWSHLELLRKY [G66P]
HIGH

Which class is correct for the following variant? GYRKEQERLGIPYDPIQWSTDQVLHWVVWVMKEFSMTDIDLTTLNISGRELCSLNQEDFFQRVPRGEILWSHLFLLRKY [E74F]
LOW

Which class is correct for the following variant? GYRKEQERLGIPYDPIQWSTDQVLHWVVWVMKEFSMTDIDLTTLNISGRELCSLNQEDFFQRVPRGEILWSHLERLRKY [L75R]
HIGH

Which class is correct for the following variant? GYRKEQERLGIPYDPIQWSTDQVLHWVVWVMKEFSKTDIDLTTLNISGRELCSLNQEDFFQRVPRGEILWSHLELLRKY [M36K]
HIGH

Which class is correct for the following variant? GYRKEQERLGIPYDPIQWSTDQVLHWVVWVMKEFSYTDIDLTTLNISGRELCSLNQEDFFQRVPRGEILWSHLELLRKY [M36Y]
HIGH

Which class is correct for the following variant? GYRKEQERLGIPYDPIQWSTDQVLHWVVWVMKEFSMTDIDLTTLNISGRELCSLNQEDFFQRVPRGEILWSHMELLRKY [L73M]
LOW

Which class is correct for the following variant? GYRKEQERLGIFYDPIQWSTDQVLHWVVWVMKEFSMTDIDLTTLNISGRELCSLNQEDFFQRVPRGEILWSHLELLRKY [P12F]
LOW

Which class is correct for the following variant? GYRKEQERLGIPYDPIQWSTDQVLHWVVWVMKEFSMTDIDLTTLNISGRELCSLNQEDFFQRVPRGEILWSHLELLRMY [K78M]
HIGH

Which class is correct for the following variant? GYRKEQERLGIPYDPIQWSTDQVLCWVVWVMKEFSMTDIDLTTLNISGRELCSLNQEDFFQRVPRGEILWSHLELLRKY [H25C]
MID

Which class is correct for the following variant? GYLKEQERLGIPYDPIQWSTDQVLHWVVWVMKEFSMTDIDLTTLNISGRELCSLNQEDFFQRVPRGEILWSHLELLRKY [R3L]
MID

Which class is correct for the following variant? GYRKEQERLGIPYDPIQWSTDQVLHWVVWVMKEFSMTDIDLTTLNISGRELCSLNQEDFFQRVPRGEILWSHTELLRKY [L73T]
LOW

Which class is correct for the following variant? GYRKEQERLGIPYDPIQWSTDQVLHWVVWPMKEFSMTDIDLTTLNISGRELCSLNQEDFFQRVPRGEILWSHLELLRKY [V30P]
LOW

Which class is correct for the following variant? GYRKEQERLGIPYDPIQWSTDQVLHWVVWVMKEFSMTDIDLTTLNISGRELCSLNQNDFFQRVPRGEILWSHLELLRKY [E57N]
MID

Which class is correct for the following variant? GYRKEQERLGIPYDPIQWSTDQVLHWVVWVMKEFSMTDIDLPTLNISGRELCSLNQEDFFQRVPRGEILWSHLELLRKY [T42P]
MID

Which class is correct for the following variant? GYRKEQERLGIPYDPIQWSTDQVLHWVVWVMKEFSMTDIDLTTLNISGRELCSLNQEDFFQRVPRGEILWSHLELSRKY [L76S]
LOW

Which class is correct for the following variant? GYRKEQERLGIPYDPIQWSTDQVLHWVVWVMKEFSMTDKDLTTLNISGRELCSLNQEDFFQRVPRGEILWSHLELLRKY [I39K]
MID

Which class is correct for the following variant? GYRKEQERLGIPYDPIQWSTDQVLHWVSWVMKEFSMTDIDLTTLNISGRELCSLNQEDFFQRVPRGEILWSHLELLRKY [V28S]
HIGH

Which class is correct for the following variant? GYRKEQERLGIPYDPIQWSTDQVLHWVVWVMKEFSMTDIDDTTLNISGRELCSLNQEDFFQRVPRGEILWSHLELLRKY [L41D]
LOW

Which class is correct for the following variant? GYRKEQERLGYPYDPIQWSTDQVLHWVVWVMKEFSMTDIDLTTLNISGRELCSLNQEDFFQRVPRGEILWSHLELLRKY [I11Y]
MID

Which class is correct for the following variant? GYRKEQERLGIPYDPIQWSTDQVLHWVVWVMKEFSMTDIDLTTLNISGRELCSSNQEDFFQRVPRGEILWSHLELLRKY [L54S]
LOW

Which class is correct for the following variant? GYRKEQERLGIPYDPIQWSTDQVLHWVVWVMKEFSMTDIDLTTLNISGRELCSLNQEDFFQRVPRGEILWSHLELWRKY [L76W]
LOW

Data origin, for the record: the Human Domainome abundance scans (Beltran et al. 2025)
